- Test system: DU-145
- Procedure summary: Cytotoxicity against prostate DU-145 cell line
- Type: functional
- Assay setup: Homo sapiens
Recorded measurements of GI50, one per entry
Metric name: GI50

[[record]]
compound = "COc1cc(C23OCC24C2COC(c5cc6c(cc53)OCO6)C24)cc(OC)c1OC (stereo not drawn)"
metric_name = "GI50"
result = "< 0.01 µM"

[[record]]
compound = "COc1cc2c(c(OC)c1OC)OC[C@@H]1[C@H]2c2cc3c(cc2C[C@H]1C)OCO3"
metric_name = "GI50"
result = "> 75.9 µM"

[[record]]
compound = "COc1ccc(C23OCC24C2COC(c5cc(OC)c(OC)cc53)C24)cc1OC (stereo not drawn)"
metric_name = "GI50"
result = "> 100 µM"

